Reference source for all entries: PubChem BioAssay AID1942

Target: Potassium voltage-gated channel subfamily KQT member 2 (Rattus norvegicus) (UniProt O88943)
Sequence (O88943 whole entry, looked up): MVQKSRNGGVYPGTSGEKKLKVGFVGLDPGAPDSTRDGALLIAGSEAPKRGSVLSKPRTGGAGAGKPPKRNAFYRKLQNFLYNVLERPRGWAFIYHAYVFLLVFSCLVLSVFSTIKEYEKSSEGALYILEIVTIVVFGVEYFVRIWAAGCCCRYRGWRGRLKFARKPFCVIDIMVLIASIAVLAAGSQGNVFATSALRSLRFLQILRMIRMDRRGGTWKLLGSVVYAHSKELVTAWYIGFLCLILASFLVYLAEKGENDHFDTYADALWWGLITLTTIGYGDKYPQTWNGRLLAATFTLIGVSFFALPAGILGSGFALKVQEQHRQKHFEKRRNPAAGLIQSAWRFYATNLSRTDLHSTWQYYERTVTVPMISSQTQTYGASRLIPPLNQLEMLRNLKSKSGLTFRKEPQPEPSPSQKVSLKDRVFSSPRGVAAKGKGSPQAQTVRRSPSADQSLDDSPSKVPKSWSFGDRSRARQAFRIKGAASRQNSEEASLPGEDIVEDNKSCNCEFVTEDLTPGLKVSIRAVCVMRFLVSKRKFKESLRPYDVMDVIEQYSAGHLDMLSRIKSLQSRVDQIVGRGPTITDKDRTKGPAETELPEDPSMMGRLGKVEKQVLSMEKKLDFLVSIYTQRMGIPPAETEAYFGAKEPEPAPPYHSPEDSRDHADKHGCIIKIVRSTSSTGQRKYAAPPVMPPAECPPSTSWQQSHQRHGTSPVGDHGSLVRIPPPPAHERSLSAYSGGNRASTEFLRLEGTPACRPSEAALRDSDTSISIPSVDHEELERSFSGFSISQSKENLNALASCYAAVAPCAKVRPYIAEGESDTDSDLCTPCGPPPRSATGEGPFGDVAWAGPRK
Assay: KCNQ2 potentiation in CHO cells – cell-based, FluxOR thallium flux, counter-screen for hERG block protector project, confirmation (AID 1942)
Conditions: FluxOR thallium flux fluorescence, at 10 µM
The whole screen tested about 2,400 compounds, of which about 580 (24%) were called active.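 The calls were made as follows: active = activity change at or above the mean plus 3 SD of buffer wells without dofetilide, per plate; inactive = the rest.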 A selection follows.
Result category, one only: active, inactive

| compound | assigned-category |
| --- | --- |
| CCCn1nnnc1NC(=O)c1cc(Cl)ccc1Cl | inactive |
| O=C(NC(=S)Nc1ccc(N2CCCCC2)cc1)c1cccs1 | inactive |
| O=C(Nc1ccccc1C(=O)O)c1ccc(NC(=O)C2CC2)cc1 | inactive |
| O=C(NC(=S)Nc1nc(-c2cccc([N+](=O)[O-])c2)cs1)c1ccccc1Cl | inactive |
| CN(C)CCCN=C(NO)c1ccc(Cl)cc1Cl | inactive |
| O=C(CSc1nnc(-c2ccncc2)o1)c1cccc([N+](=O)[O-])c1 | inactive |
| O=c1c(O)c(-c2cccs2)oc2ccc(Cl)cc12 | active |
| Cc1ccc(NC(=O)CSc2nnc(-c3cccnc3)n2-c2ccc(C)cc2)cc1 | inactive |
| c1ccc2c(c1)c1ccccc1n1c(-c3ccc4c(c3)OCO4)nnc21 | inactive |
| CC(C)NC(=S)N/N=C/c1ccc(C(C)(C)C)cc1 | inactive |

Fill in: this test's call for CCN(CC(=O)Nc1c(F)cccc1F)C(=O)c1ccc(Cl)c(S(=O)(=O)N2CCCCC2)c1 is ___
inactive

Fill in: this test's call for O=C(NC(=S)Nc1ccccc1N1CCCCC1)c1cccs1 is ___
inactive

Fill in: this test's call for CSC(=S)N/N=C/c1ccccc1 is ___
active

Fill in: this test's call for O=C(N/N=C/C(Cl)=C/c1ccc([N+](=O)[O-])cc1)C(=O)Nc1ccc(C(=O)O)cc1 is ___
inactive

Fill in: this test's call for O=C(NC(=S)Nc1ccccc1)c1cccs1 is ___
active

Fill in: this test's call for CN(C1=C(NC(=O)c2ccccc2)C(=O)c2ccccc2C1=O)C1CCS(=O)(=O)C1 (stereo not drawn) is ___
inactive

Fill in: this test's call for CCOc1ccccc1C(=O)NC1CC2CCCC(C1)N2Cc1nnnn1Cc1ccco1 (stereo not drawn) is ___
inactive

Fill in: this test's call for Cc1ccc(C(=O)NC(=S)N(C)C2CCCCC2)cc1 is ___
active

* * *

Molecular target: Potassium voltage-gated channel subfamily KQT member 2 (Rattus norvegicus) (UniProt O88943)
Assay: KCNQ2 potentiation in CHO cells – cell-based, FluxOR thallium flux, counter-screen for hERG block protector project, confirmation (AID 1942)
Conditions: FluxOR thallium flux fluorescence, at 10 µM
Screen size: about 2,400 compounds; about 580 (24%) were called active.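 The calls were made as follows: active = activity change at or above the mean plus 3 SD of buffer wells without dofetilide, per plate; inactive = the rest.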 Not all results are given here.
Result category, one only: active, inactive

| compound | assigned-category |
| --- | --- |
| COc1cc(/C=C2/C(=O)NN(c3ccc(Cl)c(Cl)c3)C2=O)cc([N+](=O)[O-])c1O | inactive |
| CC(C)Oc1cc(S(=O)(=O)N2CCCCC2)ccc1N | inactive |
| CCOC(=O)C(=CNc1cc(C)ccn1)C(=O)OCC | inactive |
| Cc1ccc(C(=O)NC(=S)N2CCN(c3cc(C)ccc3C)CC2)cc1 | inactive |
| CCOC(=O)C(=CNc1ccc(N2CCOCC2)cc1)C(=O)OCC | active |
| Cc1ccc(C(C)C)cc1OCC(=O)Nc1ccc(N2CCCCC2)cc1 | inactive |
| O=C(COc1ccc(Br)cc1Cl)NC(=S)N1CCc2ccccc21 | inactive |
| Cc1[nH]n2c(=O)cc(C(C)(C)C)nc2c1-c1ccccc1 | active |
| CC1(C)CC2CC(C)(CN2C(=S)NC(=O)c2ccccc2Cl)C1 (stereo not drawn) | active |
| O=C(CN1C(=O)COc2ccccc21)NCCCN1CCOCC1 | inactive |

Fill in: this test's call for O=c1cc(-c2ccccc2)nc2c(-c3ccccc3)c(C(F)(F)F)[nH]n12 is ___
active

Fill in: this test's call for O=C(COc1ccccc1)NC(=S)N1CCc2ccccc21 is ___
active

Fill in: this test's call for O=C(NC(=S)Nc1ccccc1Br)c1ccco1 is ___
active

Fill in: this test's call for NC(=O)c1nn2c(C(F)(F)F)cc(-c3ccccc3)nc2c1Br is ___
inactive

Fill in: this test's call for CC1CCN(c2ccccc2NC(=S)NC(=O)c2ccco2)CC1 is ___
inactive

Fill in: this test's call for Cc1cccc(C(=O)NNC(=S)NC(=O)c2ccccc2)c1 is ___
inactive

Fill in: this test's call for O=C(Nc1cccn(Cc2c(Cl)cccc2Cl)c1=O)c1ccccc1Cl is ___
inactive

Fill in: this test's call for Cc1nn(CCC#N)c2nc(-c3ccccc3)cc(C(F)(F)F)c12 is ___
inactive

* * *

Molecular target: Potassium voltage-gated channel subfamily KQT member 2 (Rattus norvegicus)
Experiment: KCNQ2 potentiation in CHO cells – cell-based, FluxOR thallium flux, counter-screen for hERG block protector project, confirmation (AID 1942)
Details: FluxOR thallium flux fluorescence, at 10 µM, stronger effect = higher value
About 580 (24%) of roughly 2,400 compounds were called active. Not all results are given here.
Assign a class from recorded activity change, less the hit threshold; defined classes: low: < -20%; mid: ≥ -20% and < -10%; high: ≥ -10%

These recorded examples may help you get a feel for the data.
| compound | assigned-category |
| --- | --- |
| CC(Nc1ccc(F)cc1)=[N+](C)CCNS(=O)(=O)c1ccc(Cl)cc1 | mid |
| CSc1nc2c(c(=O)[nH]1)C(c1ccc(F)cc1)CC(=O)N2 (stereo unspecified) | mid |
| CCC(C)NC(=O)CSc1ncnc2sccc12 (stereo unspecified) | mid |
| CCOC(=O)c1sc2ncnc(NCc3ccco3)c2c1C | high |
| CCOC(=O)c1sc2nc(C)nc(SCC(=O)N(C)C3CCS(=O)(=O)C3)c2c1C (stereo unspecified) | high |
| CCOC(=O)C1CCN(C(=O)COC(=O)c2nn(C)c(=O)c3ccccc23)CC1 | low |
| CC1=CN2C(=N)/C(=C/c3ccc(Sc4ccc(Cl)cc4)o3)C(=O)N=C2S1 | mid |
| CCOC(=O)c1c(NC(=O)/C=C/c2ccco2)sc(C)c1C | mid |
| O=C(N/N=C/c1cc([N+](=O)[O-])ccc1O)c1ccc(COc2ccc3c(c2)CCC3)o1 | low |

Turning to the following compound.
Exam item: assign O=C(O)c1ccc2c3n(nc2c1)-c1ccc(Cl)cc1CO3 to the correct category.
mid

* * *

Biological target: Potassium voltage-gated channel subfamily KQT member 2 (Rattus norvegicus) (UniProt O88943)
Test: KCNQ2 potentiation in CHO cells – cell-based, FluxOR thallium flux, counter-screen for hERG block protector project, confirmation (AID 1942)
Details: FluxOR thallium flux fluorescence, at 10 µM, stronger effect = higher value
About 580 (24%) of roughly 2,400 compounds were called active. These entries were drawn from the full list.
Assign a class from recorded activity change, less the hit threshold; defined classes: small value (below -10%), mid value (-10% to below 90%), large value (90% or more)

| compound | assigned-category |
| --- | --- |
| COc1cc(NC(=O)CCCOc2ccc(Cl)cc2Cl)c(C(=O)O)cc1OC | small value |

Exam item: assign O=c1c2cc(Cl)ccc2nc(-c2ccc(Cl)c(Cl)c2)n1O to the correct category.
large value

Exam item: assign Fc1ccc2c(c1)C(c1ccncc1)=NNC(c1cccnc1)=N2 to the correct category.
mid value

Exam item: assign C/C(O)=C/c1nc2ccccc2[nH]c1=O to the correct category.
small value

Exam item: assign Cc1ccc(-c2nc3ccc(Cl)cc3c(=O)n2O)cc1 to the correct category.
large value

Exam item: assign COc1ccc(C(=O)NC2CC3CCCC(C2)N3Cc2ccccc2)cc1 (stereo unspecified) to the correct category.
small value

Exam item: assign CC1CCCC(C)N1S(=O)(=O)c1ccc(NC(=O)CCn2cnc3ccccc3c2=O)cc1 (stereo unspecified) to the correct category.
small value

Exam item: assign COc1cc(NC(=O)c2ccccc2)c(OC)cc1NC(=O)Cc1ccc(Br)cc1 to the correct category.
mid value

* * *

Biological target: Potassium voltage-gated channel subfamily KQT member 2 (Rattus norvegicus) (UniProt O88943)
Assay: KCNQ2 potentiation in CHO cells – cell-based, FluxOR thallium flux, counter-screen for hERG block protector project, confirmation (AID 1942)
Details: FluxOR thallium flux fluorescence, at 10 µM
Out of some 2,400 compounds screened, about 580 (24%) were called active.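 The calls were made as follows: active = activity change at or above the mean plus 3 SD of buffer wells without dofetilide, per plate; inactive = the rest.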 A selection follows.
Result category, one only: active, inactive

These recorded examples may help you get a feel for the data.
| molecule | assigned-category |
| --- | --- |
| CN1CCN(c2nnc(-c3cccs3)c3ccccc23)CC1 | inactive |
| COc1ccc(C(=O)NC(=S)N(C)C2CCCCC2)cc1Br | active |
| C=CCn1c(O)c(N=NC(=S)Nc2ccc(OC)c(Cl)c2)c2ccccc21 | active |
| C=CCN(c1ccc(Cl)cc1)S(=O)(=O)c1cccc(C(=O)O)c1 | active |
| C=CCn1c(O)c(N=NC(=S)Nc2ccc(OC)cc2)c2ccccc21 | active |

Fill in: this test's call for O=[N+]([O-])C1=CC=C2C(=NC3(CCCCC3)N2O)C1=NC1CCCCC1 is ___
inactive

Fill in: this test's call for ON/C=N/C(=S)Nc1ncc(C(F)(F)F)cc1Cl is ___
active

Fill in: this test's call for CC(C)Nc1nc(SCC(N)=O)nc(N2CCOCC2)n1 is ___
inactive

Fill in: this test's call for COc1cc(CNn2nnnc2N)ccc1OCC(=O)NC(C)(C)C is ___
inactive

Fill in: this test's call for CCOC(=O)c1cnc(-n2nc(C)cc2C)nc1Nc1cccc(C(=O)O)c1 is ___
inactive

Fill in: this test's call for Nc1ccc2c(c1)C(=O)C(=O)c1ccccc1-2 is ___
inactive

Fill in: this test's call for COC(=O)Sc1nnc(-c2ccc(Br)cc2)o1 is ___
inactive

Fill in: this test's call for NC(=O)C1CCN(C(=O)CC(c2ccccc2)c2ccccc2)CC1 is ___
inactive

Fill in: this test's call for COc1cc(C(=O)NCCNc2nc3cc(C)ccc3cc2C#N)cc(OC)c1OC is ___
inactive

Fill in: this test's call for COc1ccc(C2CC(c3ccc(Cl)cc3Cl)Nc3nc(N)nn32)cc1OC (stereo not given) is ___
inactive

Fill in: this test's call for Cc1ccc2[nH]c3c(c2c1)CNCC3 is ___
inactive

Fill in: this test's call for C/C(N)=C(/C#N)C(=O)COC(=O)C1CCC(C(C)(C)C)CC1 (stereo not given) is ___
inactive

Fill in: this test's call for Cc1ccc2nc(-c3ccncc3)cc(C(=O)Nc3ccc4c(c3)OCCO4)c2c1 is ___
inactive

Fill in: this test's call for Oc1c(N=NC(=S)Nc2ccccc2F)c2ccccc2n1Cc1cccc(Cl)c1 is ___
inactive

Fill in: this test's call for CCC1=NN(C(=O)c2ccc(Cl)cc2)C(O)(c2ccccc2)C1 (stereo not given) is ___
inactive

Fill in: this test's call for Cc1nc2scc(C)n2c(=O)c1S(=O)(=O)Nc1ccc(N2CCOCC2)cc1 is ___
inactive

Fill in: this test's call for CCOC(=O)N1CCN(C(=O)CCn2c(=S)[nH]c3ccsc3c2=O)CC1 is ___
inactive

Fill in: this test's call for Oc1c(N=NC(=S)Nc2ccccc2F)c2ccccc2n1Cc1ccccc1F is ___
inactive
